- system_name: murine Langerin (mLang) CRD wild type (Mus musculus, UniProt Q8VBX4)
- Sequence (Q8VBX4 194-331): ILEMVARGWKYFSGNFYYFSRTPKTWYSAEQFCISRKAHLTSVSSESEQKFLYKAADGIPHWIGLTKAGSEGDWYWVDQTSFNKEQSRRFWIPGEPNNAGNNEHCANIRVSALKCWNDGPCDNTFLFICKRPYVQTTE
Where a SMILES comes first, the peptide text is derived from it.
Threshold 400 µM. Kd below it: Criterion met. Kd at it or above: Criterion not met.

molecule | assigned_label
C[C@H](NC(=O)[C@@H](N)CO)C(=O)N[C@@H](Cc1c[nH]c2ccccc12)C(=O)N[C@@H](CO)C(=O)O [SAWS] (H-SAWS-OH) | Criterion not met
C[C@H](N)C(=O)N[C@@H](Cc1c[nH]c2ccccc12)C(=O)N[C@@H](CO)C(=O)O [AWS] (H-Ala-Trp-Ser-OH) | Criterion not met
O=C(NCc1ccc2c(c1)OCO2)c1c(O)nc2sccn2c1=O | Criterion met
N[C@@H](CO)C(=O)N[C@@H](CO)C(=O)N[C@@H](Cc1c[nH]c2ccccc12)C(=O)N[C@@H](CO)C(=O)O [SSWS] (H-SSWS-OH) | Criterion not met
Cc1csc2ncc(C(=O)O)c(=O)n12 | Criterion not met

* * *

- system_name: murine Langerin (mLang) CRD wild type (Mus musculus, UniProt Q8VBX4)
- Construct: 194 - 331, were cloned from a codon-optimized Langerin gene; His-tag (N); made in house; host or cells: E. coli BL21
- assay_explanation: 1H-15N HSQC NMR titration, mLang CRD wild type
- Format: binding
- assay_conditions: from CSP trajectories, 298 K, pH 6
- Procedure: Protein expression and purification hLang and mLang CRD wild type and all the mutants, ranging from amino acids 193 - 328 and 194 - 331, were cloned from a codon-optimized Langerin gene for bacterial expression (GenScript, Piscataway, NJ, USA) into a pET-28a vector (GenScript, Piscataway, NJ, USA) carrying an N-terminal His-tag and a T7 promoter. All constructs were expressed in E. coli BL21 (ThermoFisher Scientific, Waltham, MA, USA) in LB medium or in M9 medium at 37 °C. […]

compound | 15N HSQC KD mLang (Murine-WT)
Cc1csc2ncc(C(=O)O)c(=O)n12 [Compound 5] | micromolar affinity
COc1cc2c(cc1OC)CC(NC(=O)c1cnc3sccn3c1=O)C2 [Compound 6] | micromolar affinity
O=C(NCc1ccc2c(c1)OCO2)c1c(O)nc2sccn2c1=O [Compound 7] | micromolar affinity
COc1ccccc1CNC(=O)c1cnc2sccn2c1=O [Compound 2] | micromolar affinity

* * *

- system_name: mLang S263M-Y268S (Mus musculus, UniProt Q8VBX4, S263M/Y268S)
- Construct: 194 - 331, were cloned from a codon-optimized Langerin gene; His-tag (N)
- assay_explanation: 1H-15N HSQC NMR titration, mLang CRD double mutant
- assay_conditions: mLang CRD S263M-Y268S mutant; read-out: 15N HSQC KD Murine-S263M-Y268S
measured_property: Kd (µM)

molecule | system_name | measured_property | measurement
O=C(O)c1cnc2sccn2c1=O [Compound 1] | mLang S263M-Y268S (Mus musculus, UniProt Q8VBX4, S263M/Y268S) | Kd | 480
COc1ccccc1CNC(=O)c1cnc2sccn2c1=O [Compound 2] | mLang S263M-Y268S (Mus musculus, UniProt Q8VBX4, S263M/Y268S) | Kd | 1740
